Molecular target: T1, mouse serum albumin (MSA), full length (mouse, UniProt P07724 25-608)
T1 construct: mature; Immobilized on CM5 chip (SPR) or coated on plates (ELISA); also called mouse albumin; murine serum albumin
Assay: SPR off-rate, immobilized MSA, 500 nM Adnectin, 25 C
measured-attribute: log10 of koff (log10 of the value in s⁻¹)

>>> recorded_measurement("ADX_6727_G06 (Y35A/K85S) (designed binder, Full His6-tagged entry) MGVSDVPRDLEVVAATPTSLLISWDAPAVTVRYYRITYGREVQKASDLGPLYIYQEFTVPGSKSTATISGLKPGVDYTITVYAVTGSGESPASSSPISINYRTEIDKPSQHHHHHH")
-2.84
>>> recorded_measurement("ADX_6727_F10 (Y35A/K85T) (designed binder, Full His6-tagged entry) MGVSDVPRDLEVVAATPTSLLISWDAPAVTVRYYRITYGREVQKASDLGPLYIYQEFTVPGSKSTATISGLKPGVDYTITVYAVTGSGESPASSTPISINYRTEIDKPSQHHHHHH")
-2.81
>>> recorded_measurement("ADX_6727_B09 (L38T/K85T) (designed binder, Full His6-tagged entry) MGVSDVPRDLEVVAATPTSLLISWDAPAVTVRYYRITYGREVQKYSDTGPLYIYQEFTVPGSKSTATISGLKPGVDYTITVYAVTGSGESPASSTPISINYRTEIDKPSQHHHHHH")
-1.58
>>> recorded_measurement("ADX_6727_B04 (Y35S/K85S) (designed binder, Full His6-tagged entry) MGVSDVPRDLEVVAATPTSLLISWDAPAVTVRYYRITYGREVQKSSDLGPLYIYQEFTVPGSKSTATISGLKPGVDYTITVYAVTGSGESPASSSPISINYRTEIDKPSQHHHHHH")
-2.85
>>> recorded_measurement("ADX_6727_A07 (Y44S/K85T) (designed binder, Full His6-tagged entry) MGVSDVPRDLEVVAATPTSLLISWDAPAVTVRYYRITYGREVQKYSDLGPLYISQEFTVPGSKSTATISGLKPGVDYTITVYAVTGSGESPASSTPISINYRTEIDKPSQHHHHHH")
-2.65
>>> recorded_measurement("ADX_7016_A01 (parent PKE2 Adnectin) (designed binder, N-terminal Met may be cleaved; also called 2629_E06; ADX_2629_E06) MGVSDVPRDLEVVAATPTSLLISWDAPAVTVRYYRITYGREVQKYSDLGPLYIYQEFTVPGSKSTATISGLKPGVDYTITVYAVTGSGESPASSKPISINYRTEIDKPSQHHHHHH")
-3.37
>>> recorded_measurement("ADX_7016_C03 (Y44Q) (designed binder, Full His6-tagged entry; also called 6727_B03) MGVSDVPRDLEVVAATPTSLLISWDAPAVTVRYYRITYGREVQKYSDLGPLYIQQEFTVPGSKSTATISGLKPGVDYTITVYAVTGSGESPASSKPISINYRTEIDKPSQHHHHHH")
-1.75
>>> recorded_measurement("ADX_6727_H06 (Y44Q/K85T) (designed binder, Full His6-tagged entry) MGVSDVPRDLEVVAATPTSLLISWDAPAVTVRYYRITYGREVQKYSDLGPLYIQQEFTVPGSKSTATISGLKPGVDYTITVYAVTGSGESPASSTPISINYRTEIDKPSQHHHHHH")
-1.84

Value source: patent US20180258158A1
